B1: REST corepressor 3, residues 87 to 134; numbered along this chain, Q9P2K3 (parent)
chain: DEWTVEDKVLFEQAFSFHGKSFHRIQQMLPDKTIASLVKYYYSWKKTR

Variants of: B1
ASSAY_TEXT: abundance fitness (aPCA) (normalised: wild type 0, dead -1); higher = more abundant; growth selection in yeast, the domain comes from the species named
CONDITION_LABEL: Homo sapiens
Categorize each record by its abundance fitness using small value = under -0.6, mid value = from -0.6 up to -0.3, large value = -0.3 and over

// below: answered variants
> print(dat)
    mut  assigned.class
1  T33E     small value
2  K32G     small value
3  F22S     small value

Class? Entry: `S36D`
large value

Class? Entry: `F22W`
large value
